Tested on: Oryza sativa
test description: Pre-emergence herbicidal activity against Oryza sativa (rice)
Type: functional, organism-based
Calls of active or inactive are those of the source. The calls are words filed in the database; no cut-off is given here.
assay endpoint: Activity

Examples from the recorded data:
INSERT INTO assay_data (smiles_data, target, assay_value) VALUES
  ('Cc1ccc2[nH]c(CSc3nnc(-c4ccc(Cl)cc4)o3)nc2c1', 'Oryza sativa', 'inactive'),
  ('c1ccc2[nH]c(CSc3nnc(-c4ccncc4)o3)nc2c1', 'Oryza sativa', 'inactive'),
  ('Nn1c(SCc2nc3ccccc3[nH]2)nnc1-c1ccc(Cl)cc1', 'Oryza sativa', 'inactive'),
  ('Clc1cccc(-c2nnc(SCc3nc4ccccc4[nH]3)o2)c1', 'Oryza sativa', 'inactive');

// query Return reported Activity; argument: `Cc1ccc2[nH]c(CSc3nnc(-c4cccc(Cl)c4)n3N)nc2c1`
// result inactive

// query Bench note: what Activity did `Cc1ccc2[nH]c(CSc3nc4ccccc4[nH]3)nc2c1` show?
// result inactive

// query # lookup: Activity of `c1ccc(-c2nnc(SCc3nc4ccccc4[nH]3)o2)cc1`
// result inactive

// query What value of Activity has been reported for the following compound? `Cc1ccc2[nH]c(CSc3nnc(-c4cccc(Cl)c4)s3)nc2c1`
// result inactive

// query Which Activity value belongs to `Nn1c(SCc2nc3ccccc3[nH]2)nnc1-c1cccc(Cl)c1` ?
// result inactive

// query GET /values?readout=Activity&item= `Clc1ccc(-c2nnc(SCc3nc4ccccc4[nH]3)o2)cc1`
// result inactive

// query Which Activity is listed for `Nn1c(SCc2nc3ccccc3[nH]2)nnc1-c1ccccc1Cl` ?
// result inactive

====

Tested on: Oryza sativa
test description: Pre-emergence herbicidal activity against Oryza sativa (rice)
Format: functional, organism-based
Activity calls are given as the source filed them. No cut-off for these calls is given here.
assay endpoint: Activity

INSERT INTO assay_data (smiles_data, assay_value) VALUES
  ('Cc1ccc2[nH]c(CSc3nnc(-c4ccccc4)n3N)nc2c1', 'inactive'),
  ('c1ccc(-c2nnc(SCc3nc4ccccc4[nH]3)s2)cc1', 'inactive'),
  ('Cc1ccc2[nH]c(CSc3nnc(-c4ccccc4)o3)nc2c1', 'inactive'),
  ('Nn1c(SCc2nc3ccccc3[nH]2)nnc1-c1ccccc1', 'inactive'),
  ('Clc1ccccc1-c1nnc(SCc2nc3ccccc3[nH]2)o1', 'inactive');

// query Form field: reported Activity of `Clc1cccc(-c2nnc(SCc3nc4ccccc4[nH]3)s2)c1`
// result inactive

// query May I ask what Activity has been recorded for `Clc1ccccc1-c1nnc(SCc2nc3ccccc3[nH]2)s1` ?
// result inactive

// query Any idea what Activity was measured for `Cc1ccc2[nH]c(CSc3nnc(-c4ccccc4)s3)nc2c1` ?
// result inactive

// query Requested read-out: Activity. Entry: `c1ccc2[nH]c(CSc3nnc(-c4ccncc4)s3)nc2c1`
// result inactive

// query Activity value for entry `Nn1c(SCc2nc3ccccc3[nH]2)nnc1-c1ccncc1`
// result inactive

// query What measured Activity goes with `Clc1ccc(-c2nnc(SCc3nc4ccccc4[nH]3)s2)cc1` ?
// result inactive

====

Test system: Abutilon theophrasti
test description: Post-emergence herbicidal activity against Abutilon theophrasti (velvetleaf)
Type: functional, organism-based
Active and inactive are the calls of the source. The rule behind the calls is not given here.
assay endpoint: Activity

Example entries begin here.
INSERT INTO measurements (smiles_data, assay_value) VALUES
  ('c1ccc(-c2nnc(SCc3nc4ccccc4[nH]3)s2)cc1', 'inactive'),
  ('Nn1c(SCc2nc3ccccc3[nH]2)nnc1-c1ccncc1', 'inactive'),
  ('c1ccc(-c2nnc(SCc3nc4ccccc4[nH]3)o2)cc1', 'inactive'),
  ('Cc1ccc2[nH]c(CSc3nnc(-c4cccc(Cl)c4)s3)nc2c1', 'inactive'),
  ('Clc1cccc(-c2nnc(SCc3nc4ccccc4[nH]3)o2)c1', 'inactive');

// query Form field: reported Activity of `Cc1ccc2[nH]c(CSc3nnc(-c4ccc(Cl)cc4)o3)nc2c1`
// result inactive

// query Request the reported Activity associated with `Nn1c(SCc2nc3ccccc3[nH]2)nnc1-c1cccc(Cl)c1`
// result inactive

// query Quick one: Activity for `Clc1ccc(-c2nnc(SCc3nc4ccccc4[nH]3)o2)cc1` ?
// result inactive

// query Param item = `c1ccc2[nH]c(CSc3nnc(-c4ccncc4)o3)nc2c1` ; retrieve measured Activity.
// result inactive
